Below, each of the compounds is paired with its reported IC50 value.
# Test system: pERK in MKN1 cells
# Assay details: pERK inhibition, In-Cell Western (LI-COR Odyssey), MKN1 cells
# Assay type: cell-based
# Assay setup: Homo sapiens, MKN-1, Table B1; MKN1 or H358 cells (table does not say which); 0.5-1 hour incubation; read-out: IC50 (nM), pERK inhibition
Respond numerically; units are nM and should not be typed.

Use the examples below as a reference point.
Cc1nnc(N[C@H](C)c2cccc(C(F)F)c2F)c2cc(N3CCC34COC4)c(F)cc12    7130
Cc1nnc(N[C@H](C)c2cccc(C(F)F)c2F)c2cc(N3CCN(CCCF)CC3)ncc12    223
Cc1c(C#N)cccc1[C@@H](C)Nc1nnc(C)c2cc(F)c(N(C)C)cc12    188
Cc1c(C#N)cccc1[C@@H](C)Nc1nnc(C)c2cnc(-c3ccc(=O)n(C)c3)cc12    1330
Cc1c(C#N)cccc1[C@@H](C)Nc1nnc(C)c2cc(F)c(N3CCC34COC4)cc12    26

query: State the recorded IC50 for this entry: CNc1cc2c(N[C@H](C)c3cccc(C#N)c3C)nnc(C)c2cc1F
result: 154

query: Can you share its IC50? I mean this compound: Cc1c(C#N)cccc1[C@@H](C)Nc1nnc(C)c2cnc(N3CCn4c(nnc4C(F)(F)F)C3)cc12
result: 121

query: Which IC50 is reported for this compound? Cc1nnc(N[C@H](C)c2cccc(C(F)F)c2F)c2cc(N3CCC34CN(C)C4)ccc12
result: 42.1

* * *

Catalogue of compounds with associated Ki
# Tested on: recombinant human SOS1 polypeptide (amino acids 560-1049) (Homo sapiens)
# Construct: corresponding to amino acids 560-1049, expressed in E. Coli; made in house; host or cells: E. coli
# Assay details: HTRF displacement assay: inhibition of labeled tracer binding to SOS1
# Assay setup: Table A1, Morrison equation for competitive binding
Where a name gives a salt, the structure may show the parent alone.
Provide only the numeric value, understood in nM.

Here's what some known entries look like.
Cc1nnc(N[C@H](C)c2cccc(C(C)(F)F)c2F)c2cc(N(C)[C@@H]3CCN(C)C3)ncc12    0.321
COCCN1CC2(CCN2c2cc3c(N[C@H](C)c4cccc(C#N)c4C)nnc(C)c3cn2)C1 [Example P-217, formic acid salt]    0.762
Cc1c(C#N)cccc1[C@@H](C)Nc1nnc(C)c2cnc(N3CCn4c(nnc4C(F)(F)F)C3)cc12    6.92
Cc1nnc(N[C@H](C)c2cccc(C(F)F)c2F)c2cc(N3CCC34CN(C)C4)ncc12    0.4
COC1(C)CCN(c2cc3c(N[C@H](C)c4cccc(C#N)c4C)nnc(C)c3cn2)CC1 [Example P-9, formic acid salt]    0.989

query: I have this compound here, Cc1nnc(N[C@H](C)c2cccc(C(C)(F)F)c2F)c2cc(N3CCOCC3)ncc12 , and I need its recorded Ki.
result: 0.827

query: May I ask what Ki has been recorded for Cc1nnc(N[C@H](C)c2cccc(C(F)F)c2F)c2cc(N3CCC34CN(C)C4)ccc12 ?
result: 0.596

query: Query: Ki; subject: COC1(c2cc3c(N[C@H](C)c4cccc(C#N)c4C)nnc(C)c3cc2F)CCN(C(C)=O)CC1
result: 2.2

query: Give its Ki value. Item: Cc1nnc(N[C@H](C)c2cccc(C(C)(F)F)c2F)c2cc(N3CCN4CCOC[C@@H]4C3)ncc12
result: 0.425

query: Fill in the blank: the reported Ki of Cc1c(C#N)cccc1[C@@H](C)Nc1nnc(C)c2c(C)nc(N(C)[C@H]3CCN(C)C3)cc12 is ____.
result: 0.572

query: Tell me the measured Ki of Cc1c(C#N)cccc1[C@@H](C)Nc1nnc(C)c2cnc(N3CCOC(=O)C3)cc12 , please.
result: 26.1

query: I have this compound here, Cc1c(C#N)cccc1[C@@H](C)Nc1nnc(CO)c2cnc(N3CCOCC3)cc12 [Example P-201, formic acid salt] , and I need its recorded Ki.
result: 6.36

query: I would be grateful if you could share the reported Ki for Cc1c(C#N)cccc1[C@@H](C)Nc1nnc(C)c2cnc(N3CCOCC3=O)cc12 .
result: 139

query: # Ki lookup, item Cc1c(C#N)cccc1[C@@H](C)Nc1nnc(C)c2cc(F)c(N3CCC34CN(CCC(=O)O)C4)cc12
result: 0.678

query: Fill in: Ki of Cc1c(C#N)cccc1[C@@H](C)Nc1nnc(C)c2cnc(N3CCN(CCCF)CC3)cc12 is ___
result: 0.671

* * *

# Tested on: recombinant human SOS1 polypeptide (amino acids 560-1049) (Homo sapiens, UniProt Q07889)
# Construct: corresponding to amino acids 560-1049, expressed in E. Coli; made in house; host or cells: E. coli
# Sequence (Q07889 560-1049): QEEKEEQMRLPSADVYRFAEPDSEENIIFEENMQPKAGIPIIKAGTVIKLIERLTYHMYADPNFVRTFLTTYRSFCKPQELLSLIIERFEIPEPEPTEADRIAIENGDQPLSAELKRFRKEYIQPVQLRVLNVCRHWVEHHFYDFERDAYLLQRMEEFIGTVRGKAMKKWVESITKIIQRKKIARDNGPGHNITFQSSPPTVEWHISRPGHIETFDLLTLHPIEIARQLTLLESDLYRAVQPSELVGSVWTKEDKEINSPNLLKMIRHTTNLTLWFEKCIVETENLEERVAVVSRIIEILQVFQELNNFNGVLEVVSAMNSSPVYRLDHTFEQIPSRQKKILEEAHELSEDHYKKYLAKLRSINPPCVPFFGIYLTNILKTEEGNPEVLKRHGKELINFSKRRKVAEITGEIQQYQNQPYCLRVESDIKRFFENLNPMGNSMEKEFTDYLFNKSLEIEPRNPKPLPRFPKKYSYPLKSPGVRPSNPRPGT
# Assay details: HTRF displacement assay: inhibition of labeled tracer binding to SOS1
# Assay setup: Table A, Morrison equation for competitive binding
# Ki listing for each entry below
Please respond with the number in nM and leave the unit unwritten.

Solved cases (6 shown):
CCOCCN1CC2(C1)CN(c1cc3c(N[C@H](C)c4cccc(C#N)c4C)nnc(C)c3cn1)C2 [Example 1-60]    0.93
Cc1c(C#N)cccc1[C@@H](C)Nc1nnc(C)c2cnc(N(C)[C@H]3CCCNC3)cc12 [Example 1-53]    0.853
Cc1nnc(N[C@H](C)c2cc(N)cc(C(F)(F)F)c2F)c2cc(N3CC(C)(O)C3)ncc12 [Example 1-93]    0.361
Cc1nnc(N[C@H](C)c2cccc(C(F)(F)F)c2F)c2cc(N3C[C@H]4C[C@@H]3CO4)c(C#N)cc12 [Example 6-20]    1.4
CCN1CCN(c2cc3c(N[C@H](C)c4cccc(C#N)c4C)nnc(C)c3cn2)C[C@H]1C [Example 1-13]    0.82
Cc1c(C#N)cccc1[C@@H](C)Nc1nnc(C)c2cc(C#N)c(N3CCN(C)CC3)cc12 [Example 6-19]    2.94

Shift focus to the following entry.
query: // query Ki value for entry Cc1c(C#N)cccc1[C@@H](C)Nc1nnc(N2CC[C@@H](N(C)C)C2)c2cnc(N3C[C@H]4C[C@@H]3CO4)cc12 [Example 5-2]
result: 0.973

* * *

# Tested on: recombinant human SOS1 polypeptide (amino acids 560-1049) (Homo sapiens, UniProt Q07889)
# Construct: corresponding to amino acids 560-1049, expressed in E. Coli; made in house; host or cells: E. coli
# Assay details: HTRF displacement assay: inhibition of labeled tracer binding to SOS1
# Assay setup: Table A, Morrison equation for competitive binding
Reported Ki values for a set of compounds
I only need the number, in nM, no unit after it.

Cc1c(C#N)cccc1[C@@H](C)Nc1nnc(C)c2cnc(N(C)C[C@@H]3CCCN3C)cc12    1.59

query: What Ki appears in the records for this compound with recombinant human SOS1 polypeptide (amino acids 560-1049) (Homo sapiens, UniProt Q07889)? Cc1c(C#N)cccc1[C@@H](C)Nc1nnc(C)c2cnc(N3CCN(C)C[C@H]3C)cc12
result: 0.526

query: Field: Ki (recombinant human SOS1 polypeptide (amino acids 560-1049) (Homo sapiens, UniProt Q07889)). Entry: Cc1nnc(N[C@H](C)c2cccc(C(F)(F)F)c2F)c2cc(N3CCN(C)CC3)c(F)cc12
result: 1.06

* * *

# Tested on: recombinant human SOS1 polypeptide (amino acids 560-1049) (Homo sapiens, UniProt Q07889)
# Construct: corresponding to amino acids 560-1049, expressed in E. Coli; made in house; host or cells: E. coli
# Assay details: HTRF displacement assay: inhibition of labeled tracer binding to SOS1
# Assay setup: Table A, Morrison equation for competitive binding
Items are presented alongside their recorded Ki.
Give just the numeric value; nM need not be written.

CCN1CCN(c2cc3c(N[C@H](C)c4cccc5c4OCC5(F)F)nnc(C)c3cn2)CC1    0.326
Cc1c(C#N)cccc1[C@@H](C)Nc1nnc(C)c2cc(F)c(N3C[C@@H]4[C@H]3CCN4C)cc12 (single isomer, unassigned)    2
Cc1c(C#N)cccc1[C@@H](C)Nc1nnc(C)c2cc(F)c(N3CCS(=O)(=O)CC3)cc12    3.53

Shifting focus to the compound that follows.
query: Item under review: Cc1c(C#N)cccc1[C@@H](C)Nc1nnc(C)c2cnc(N(C)[C@H]3CCCN(C)C3)cc12 . Reported Ki?
result: 0.865
